Consider the following compounds and their measured pIC50 readings.
Tested on: clinical isolates of Klebsiella pneumonia (Klebs)
Protocol Notes: Broth microdilution in Klebs clinical isolates
Type: cell-based
Condition Notes: Klebsiella pneumoniae, Klebs Isolate 6; LB broth
Value format note: pIC50 is -log10 of concentration (mol/L); just state the number.

Worked cases, pIC50 given:
>>> result_value("CC1(C)S[C@@H]2[C@H](NC(=O)[C@H](N)c3ccccc3)C(=O)N2[C@H]1C(=O)O [Ampicillin]")
3.93
>>> result_value("O=C(Cc1ccccc1)N[C@@H]1C(=O)N2C(C(=O)O)=C(CSc3cccc[n+]3[O-])CS[C@H]12 [DB4-51]")
4.33

Could you now look at the following compound, please?
// returns reported pIC50 for input [O-][n+]1ccccc1S [PT, 2-mercaptopyridine N-oxide] 5.22

Source of measurements: patent US10533018B2
